Reference source for all entries: PubChem BioAssay (NCI)

test system: MALME-3M melanoma; experiment: NCI tumour cell line growth inhibition, 48 h; in the data active = GI50 below about 0.43 µM; inactive = the rest
Write down one outcome, taken from active, inactive

NC(=O)c1ccc2nc3c(n2c1)C(=O)C(=O)c1ccccc1-3 active

Prompt: Please state the recorded outcome for this compound: CC(C)Nc1ncc2cc(Oc3ccc(F)cc3F)c(=O)n(C)c2n1
Response: inactive

Prompt: Entry COc1ccccc1/C=C/C(=O)/C=C/c1ccccc1OC : call = ?
Response: inactive

Prompt: Just curious, what result did COc1ccc(-c2csc(NC(=O)c3cc(O)c(O)c(O)c3)n2)cc1 get here?
Response: inactive

---

tested on: SN12C renal; assay: NCI tumour cell line growth inhibition, 48 h
Below, each of the compounds is paired with its reported TGI value.

Prompt: Write down measured TGI (SN12C renal) for this compound. CCOC(=O)Nc1nc2c(C)cccc2s1
Response: > 100 µM

---

system: NCI/ADR-RES ovarian; assay: NCI tumour cell line growth inhibition, 48 h
measured.quantity: TGI

Example cases with answers are listed next.
compound	tested.target	data.value
COc1cc(/C=C2\C(=O)Nc3cccc(Cl)c32)cc(OC)c1OC	NCI/ADR-RES ovarian	> 100 µM
Cc1nc(C(N)=S)sc1C(=O)C/C(=N/N)C(=O)Nc1ccc(Cl)cc1	NCI/ADR-RES ovarian	> 100 µM

Prompt: Report measured TGI on NCI/ADR-RES ovarian; entry: NC(=O)c1nnsc1NC=O
Response: > 100 µM

Prompt: Under NCI/ADR-RES ovarian: report TGI of CCNCCCn1c2c(c3ccc([N+](=O)[O-])cc3c1=O)C(=O)c1cc(OC)cnc1-2 .
Response: 0.689 µM

Prompt: Provide TGI, tested on NCI/ADR-RES ovarian, for O=[N+]([O-])c1ccc(Cl)cc1N/N=C/c1cccc2cccnc12 .
Response: > 100 µM

Prompt: Check NCI/ADR-RES ovarian data and give TGI for CCCN(CCSSCCNc1nc(N(C)O)nc(N(C)O)n1)c1nc(N(C)O)nc(N(C)O)n1 .
Response: > 100 µM

Prompt: System NCI/ADR-RES ovarian. Read-out TGI. Item O=C(CC1C=CCS1(=O)=O)NCc1ccccc1 (stereo not drawn) . Report value.
Response: > 100 µM

---

test system: HCT-116 colon; experiment: NCI tumour cell line growth inhibition, 48 h
measured.quantity: TGI

molecule	TGI
NC1CC(=O)c2sccc21 (centres undefined)	> 100 µM
NC(=O)CC(N=C1C(=O)OC(C(O)CO)C1=NC(CC(N)=O)C(=O)O)C(=O)O (centres undefined)	> 100 µM

Prompt: Consider the molecule N#CC1CC2(C(=O)C1=O)c1ccccc1-c1ccccc12 (centres undefined) . State its measured TGI.
Response: > 100 µM

Prompt: Give the measured TGI for COC(=O)c1ccccc1C1CN=NC12Cc1cccc(C)c1C2=O (centres undefined)
Response: > 100 µM

Prompt: In one line, give reported TGI of the entry C=C1C(=O)O[C@H]2[C@H]1CC/C(Cn1cc(-c3cc(C)c(C)cc3C)nn1)=C\CC[C@@]1(C)O[C@@H]21 .
Response: 1.06 µM

Prompt: Note down TGI recorded for Cc1ccc(C(=O)Nc2ccc(S(=O)(=O)O)c3cc(S(=O)(=O)O)cc(S(=O)(=O)O)c23)cc1NC(=O)c1cccc(NC(=O)Nc2cccc(C(=O)Nc3cc(C(=O)Nc4ccc(S(=O)(=O)O)c5cc(S(=O)(=O)O)cc(S(=O)(=O)O)c45)ccc3C)c2)c1 (tested in a mixture with another compound)
Response: > 50 µM

Prompt: Quote TGI reported for COc1cc2c(cc1OCCCC(=O)Nc1cc(C(=O)NCCCN(C)C)n(C)n1)N=CC1CCCN1C2=O (centres undefined) please.
Response: > 37.7 µM

Prompt: Complete the entry with TGI for Cc1cc(=O)oc2cc(OS(C)(=O)=O)ccc12
Response: > 100 µM

Prompt: Please report TGI for the following molecule: CC(C)c1ccc(NC(=S)NC(=O)c2ccccc2)cc1
Response: 39.3 µM

---

system: EKVX NSCLC; assay: NCI tumour cell line growth inhibition, 48 h
measured.quantity: TGI (µM)
Answer with a number only, understood to be in µM.

Look over these answered cases.
compound	tested.target	unit	TGI
O=C(COc1cccc(/C=C2\CSc3ccccc3C2=O)c1)c1ccc(Cl)cc1	EKVX NSCLC	µM	17.5
O=C(OCCC12CC3CC(CC(C3)C1)C2)c1ccc(NCc2cc(O)ccc2O)cc1	EKVX NSCLC	µM	4.88
O=C(Nc1ccccc1)Nc1cccc(Oc2nnc(Cl)c3ccccc23)c1	EKVX NSCLC	µM	12.1
C=C1C[C@@]2(C)C(CC[C@]3(C)C2CC=C2C4CC(C)(C)C[C@@H](OC(=O)/C(C)=C\C)[C@]4(C(=O)O)CC[C@]23C)C(C)(C)C1=O (some centres undefined)	EKVX NSCLC	µM	19

Prompt: GET TGI where system = EKVX NSCLC and item = C[C@]1(O)O[C@@H]2OCC[C@@H]2C2=C1C(=O)c1ccccc1C2=O
Response: 37.1

Prompt: Retrieve TGI on EKVX NSCLC; query CS(=O)(=O)OCCN(CCOS(C)(=O)=O)c1ccc(C=O)cc1
Response: 25.4

Prompt: Report the value of TGI obtained on EKVX NSCLC for CC(=O)/C=C(\O)c1[nH]c(C(=O)O)cc1C1CCN(Cc2ccccc2)C1=O (centres undefined) .
Response: 60.6

---

system: NCI-H23 lung; test: NCI tumour cell line growth inhibition, 48 h; in the data active means GI50 below about 0.43 µM; inactive means the rest
Please reply with one of these outcomes: Y (active), N (inactive)

Worked set:
compound	tested.target	cat
CCOC(=O)c1cc(C(=O)c2cc(OC)c(OC)c(OC)c2)n2ccccc12	NCI-H23 lung	Y
CN(C)CCCn1c2nc(=O)[nH]c(=O)c-2nc2cc(Cl)c(Cl)cc21	NCI-H23 lung	N
CCNCCCn1c2c(c3ccc([N+](=O)[O-])cc3c1=O)C(=O)c1cc(OC)cnc1-2	NCI-H23 lung	Y
COc1ccc(N(C)c2c3ccccc3nc3[nH]c4ccccc4c23)cc1	NCI-H23 lung	N
C=C1C[C@@]2(C)C(CC[C@]3(C)C2CC=C2C4CC(C)(C)C[C@@H](OC(=O)/C(C)=C\C)[C@]4(C(=O)O)CC[C@]23C)C(C)(C)C1=O (some centres undefined)	NCI-H23 lung	N
Oc1ccc(C#CCOc2ccccc2)cc1CNCCN(Cc1ccccn1)Cc1ccccn1	NCI-H23 lung	N
Fc1ccc2[nH]cc(SSc3c[nH]c4ccc(F)cc34)c2c1	NCI-H23 lung	N
C=C1C(=O)O[C@H]2[C@H]1CC/C(COC(=O)c1ccccc1)=C\CC[C@@]1(C)O[C@@H]21	NCI-H23 lung	N

Prompt: Call for entry Cc1ccc(Sc2sc(-c3ccccc3)nc2[P+](c2ccccc2)(c2ccccc2)c2ccccc2)cc1 :
Response: Y

Prompt: Please state the recorded outcome for this compound: COc1ccc2c(c1)C1(C(=O)N2)C(C#N)=C(c2ccccc2)Nc2c1c(-c1ccccc1)nn2-c1ccccc1 (centres undefined)
Response: N

Prompt: Returns: the outcome recorded for O=C(COc1cccc(/C=C2\CSc3ccccc3C2=O)c1)c1ccc(Cl)cc1 in this assay.
Response: N

Prompt: Can you look up the reported call for CCOC(=O)Nc1nc2c(C)cccc2s1 for me?
Response: N

Prompt: Outcome? C=C1C(=O)O[C@H]2[C@H]1CC/C(Cn1cc(-c3cc(C)c(C)cc3C)nn1)=C\CC[C@@]1(C)O[C@@H]21
Response: N

Prompt: Identify the outcome logged in this assay for the compound shown: COC1=C(Br)C(=O)C2=C(C1=O)C1C3=C(C(=O)C=CC3=O)C2c2ccccc21 (centres undefined)
Response: N

---

system: NCI/ADR-RES ovarian; experiment: NCI tumour cell line growth inhibition, 48 h
measured.quantity: TGI

compound	data.value
Nc1ncnc2c1cnn2Cc1ccc(Cl)cc1	> 100 µM
N=c1c2c(=S)n(-c3ccccc3)c(=S)n(-c3ccccc3)c2nc(SCCN2CCOCC2)n1-c1ccccc1	14.6 µM

Prompt: Consider the compound CCOC(=O)C(C(=O)OCC)=C1NC2(c3ccccc3Nc3ccc(C)cc32)C(C(=O)OC)S1 (stereo unspecified) and give its recorded TGI.
Response: > 100 µM

Prompt: Return reported TGI. Input compound: Cc1cc2cn3c4cccnc4[nH]c(=O)c3c2cc1C
Response: 2.96 µM

Prompt: Provide TGI value for the following compound: CC(=O)O[C@H]1C[C@H]2C(=S)Nc3ccccc3C(=S)N2C1
Response: > 100 µM

Prompt: Name the recorded TGI of the item Fc1ccc2[nH]cc(SSc3c[nH]c4ccc(F)cc34)c2c1 in your answer.
Response: > 100 µM

Prompt: Check the records and state TGI for O=C(Nc1cccc(-n2cc(-c3ccncc3)c(-c3ccc(O)c(Cl)c3)n2)c1)Nc1cccc(C(F)(F)F)c1
Response: > 100 µM

---

Form field: GI50 (one value per entry).
tested on: TK-10 renal; assay: NCI tumour cell line growth inhibition, 48 h

Consider the following illustrative entries.
C1=Nc2ccccc2C=Nc2ccccc2C=Nc2ccccc2C=Nc2ccccc21.[Cl-].[Pt+2] 45.7 µM
N#C/C(=C\c1ccc(Br)cc1)n1nnc2ccccc21 2.69 µM
CN(C)CCCn1c2nc(=O)[nH]c(=O)c-2nc2cc(Cl)c(Cl)cc21 4.62 µM
NC(=O)c1ccc2nc3c(n2c1)C(=O)C(=O)c1ccccc1-3 1.82 µM

// below: GI50 requested for another molecule
Prompt: Quote GI50 reported for COc1cc(/C=C2\C(=O)Nc3cccc(Cl)c32)cc(OC)c1OC please.
Response: > 100 µM
